# methodSummary: Human pharmacokinetics of 9-ING-41 from study NCT03678883
# testSettings: in vivo, intravenous, dose 9.3 mg/kg (current dose), read-out: AUC(0-24)

[
  {
    "querySmiles": "Cn1cc(C2=C(c3coc4ccc(F)cc34)C(=O)NC2=O)c2cc3c(cc21)OCO3",
    "AUC(0-t) (ng·h/mL)": 42000
  }
]

These entries and their values trace back to patent US20260232634A1.
